Assayed Target: MINK (Homo sapiens, UniProt Q8N4C8)
Sequence (Q8N4C8 whole entry): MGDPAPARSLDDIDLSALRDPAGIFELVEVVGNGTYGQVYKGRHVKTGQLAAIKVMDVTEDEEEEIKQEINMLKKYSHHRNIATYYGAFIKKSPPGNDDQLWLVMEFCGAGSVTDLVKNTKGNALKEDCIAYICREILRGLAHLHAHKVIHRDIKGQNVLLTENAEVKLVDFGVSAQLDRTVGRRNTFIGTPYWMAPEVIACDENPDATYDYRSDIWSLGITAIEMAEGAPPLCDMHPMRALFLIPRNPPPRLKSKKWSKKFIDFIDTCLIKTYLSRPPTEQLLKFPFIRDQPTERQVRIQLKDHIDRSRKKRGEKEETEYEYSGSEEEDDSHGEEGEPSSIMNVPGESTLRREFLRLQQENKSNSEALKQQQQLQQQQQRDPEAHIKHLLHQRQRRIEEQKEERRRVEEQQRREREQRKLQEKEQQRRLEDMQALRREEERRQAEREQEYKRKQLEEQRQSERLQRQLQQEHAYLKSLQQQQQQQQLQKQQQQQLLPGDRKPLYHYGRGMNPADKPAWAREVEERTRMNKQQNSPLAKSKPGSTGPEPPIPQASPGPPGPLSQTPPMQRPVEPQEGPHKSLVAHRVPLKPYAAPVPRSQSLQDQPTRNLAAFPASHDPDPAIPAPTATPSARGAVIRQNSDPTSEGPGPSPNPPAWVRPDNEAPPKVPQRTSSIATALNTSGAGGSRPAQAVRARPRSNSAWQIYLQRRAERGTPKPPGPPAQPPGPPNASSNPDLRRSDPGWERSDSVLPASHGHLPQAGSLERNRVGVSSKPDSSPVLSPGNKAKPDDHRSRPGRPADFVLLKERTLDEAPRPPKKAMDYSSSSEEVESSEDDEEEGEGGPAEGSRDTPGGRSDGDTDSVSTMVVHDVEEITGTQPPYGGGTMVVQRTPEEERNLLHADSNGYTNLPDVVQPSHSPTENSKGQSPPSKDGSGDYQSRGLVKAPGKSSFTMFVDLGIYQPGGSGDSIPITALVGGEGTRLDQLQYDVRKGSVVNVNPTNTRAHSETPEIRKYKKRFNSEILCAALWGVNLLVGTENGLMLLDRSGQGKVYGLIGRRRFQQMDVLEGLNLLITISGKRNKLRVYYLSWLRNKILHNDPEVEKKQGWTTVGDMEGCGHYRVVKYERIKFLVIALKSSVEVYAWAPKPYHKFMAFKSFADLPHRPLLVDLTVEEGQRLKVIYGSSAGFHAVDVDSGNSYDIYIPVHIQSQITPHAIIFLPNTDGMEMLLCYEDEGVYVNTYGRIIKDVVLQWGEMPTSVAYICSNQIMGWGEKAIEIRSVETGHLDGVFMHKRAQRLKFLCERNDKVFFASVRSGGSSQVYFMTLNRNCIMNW
Recorded measurements of IC50, one per entry
Readout: IC50 (µM)

1) COc1cc(N2CCC(N3CCN(C)CC3)CC2)ccc1Nc1ncc(Cl)c(Nc2ccccc2P(C)(C)=O)n1 [Brigatinib, reference compound] | 4.04
2) COc1cc(N2CCC3(CCN(C)CC3)CC2)ccc1Nc1ncc(Cl)c(Nc2ccccc2P(C)(C)=O)n1 [Iruplinalkib] | 3.89

----------
Assayed Target: MRP2 (Homo sapiens, UniProt Q92887)
Construct: host or cells: membrane vesicles ('Membrane capsule'), MRP2 versus NC control, with ATP or AMP
Sequence (Q92887 whole entry): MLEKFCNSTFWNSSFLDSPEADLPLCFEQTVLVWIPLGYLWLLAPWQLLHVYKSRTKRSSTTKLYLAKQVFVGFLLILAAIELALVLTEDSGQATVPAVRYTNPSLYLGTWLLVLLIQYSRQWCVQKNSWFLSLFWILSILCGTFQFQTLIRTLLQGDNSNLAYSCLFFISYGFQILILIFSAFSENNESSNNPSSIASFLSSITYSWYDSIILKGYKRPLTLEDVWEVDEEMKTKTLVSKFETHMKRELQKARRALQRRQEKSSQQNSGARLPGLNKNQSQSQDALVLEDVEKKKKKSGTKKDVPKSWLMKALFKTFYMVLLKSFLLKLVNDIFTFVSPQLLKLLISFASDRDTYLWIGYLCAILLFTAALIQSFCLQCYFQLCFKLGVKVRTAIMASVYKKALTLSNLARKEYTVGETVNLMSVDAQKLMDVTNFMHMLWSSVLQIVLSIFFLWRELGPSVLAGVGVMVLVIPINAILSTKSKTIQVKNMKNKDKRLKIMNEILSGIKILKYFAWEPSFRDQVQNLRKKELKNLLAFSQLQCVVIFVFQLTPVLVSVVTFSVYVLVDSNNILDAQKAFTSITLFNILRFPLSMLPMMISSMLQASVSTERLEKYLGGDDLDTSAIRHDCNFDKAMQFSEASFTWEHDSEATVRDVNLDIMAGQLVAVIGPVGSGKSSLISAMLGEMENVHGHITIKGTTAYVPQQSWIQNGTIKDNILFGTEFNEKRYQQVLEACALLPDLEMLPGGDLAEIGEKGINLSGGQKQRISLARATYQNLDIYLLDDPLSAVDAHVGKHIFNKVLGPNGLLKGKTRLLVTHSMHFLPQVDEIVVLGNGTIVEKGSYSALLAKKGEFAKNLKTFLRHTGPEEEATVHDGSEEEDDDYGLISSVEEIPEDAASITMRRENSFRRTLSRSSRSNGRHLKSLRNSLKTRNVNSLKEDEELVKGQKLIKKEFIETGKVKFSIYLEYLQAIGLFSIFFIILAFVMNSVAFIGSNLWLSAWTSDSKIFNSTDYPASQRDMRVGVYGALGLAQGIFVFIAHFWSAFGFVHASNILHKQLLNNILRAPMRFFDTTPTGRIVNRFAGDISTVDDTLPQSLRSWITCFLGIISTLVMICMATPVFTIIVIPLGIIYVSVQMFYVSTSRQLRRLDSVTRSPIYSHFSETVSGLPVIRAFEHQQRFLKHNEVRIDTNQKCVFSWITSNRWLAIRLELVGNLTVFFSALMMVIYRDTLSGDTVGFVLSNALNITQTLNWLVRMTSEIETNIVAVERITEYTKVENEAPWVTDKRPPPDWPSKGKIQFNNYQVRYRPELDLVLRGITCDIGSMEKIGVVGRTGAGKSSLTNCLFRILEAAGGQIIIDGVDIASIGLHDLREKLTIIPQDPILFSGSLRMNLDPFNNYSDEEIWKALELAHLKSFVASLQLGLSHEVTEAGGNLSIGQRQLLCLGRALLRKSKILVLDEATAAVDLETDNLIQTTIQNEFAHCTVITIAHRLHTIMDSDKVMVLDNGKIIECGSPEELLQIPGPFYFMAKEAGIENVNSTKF
Assay Explanation: MRP2 inhibitor investigation
Assay type: in vitro ADME
Condition: probe CDCF; MRP2; substrate CDCF 5 μM; inhibitor 100 μM; read-out: Inhibition rate
Readout: inhibition at 100 μM

1) COc1cc(N2CCC3(CCN(C)CC3)CC2)ccc1Nc1ncc(Cl)c(Nc2ccccc2P(C)(C)=O)n1 [Iruplinalkib] | -7.3%

----------
Assayed Target: MATE1 (Homo sapiens, UniProt Q96FL8)
Sequence (Q96FL8 1-570): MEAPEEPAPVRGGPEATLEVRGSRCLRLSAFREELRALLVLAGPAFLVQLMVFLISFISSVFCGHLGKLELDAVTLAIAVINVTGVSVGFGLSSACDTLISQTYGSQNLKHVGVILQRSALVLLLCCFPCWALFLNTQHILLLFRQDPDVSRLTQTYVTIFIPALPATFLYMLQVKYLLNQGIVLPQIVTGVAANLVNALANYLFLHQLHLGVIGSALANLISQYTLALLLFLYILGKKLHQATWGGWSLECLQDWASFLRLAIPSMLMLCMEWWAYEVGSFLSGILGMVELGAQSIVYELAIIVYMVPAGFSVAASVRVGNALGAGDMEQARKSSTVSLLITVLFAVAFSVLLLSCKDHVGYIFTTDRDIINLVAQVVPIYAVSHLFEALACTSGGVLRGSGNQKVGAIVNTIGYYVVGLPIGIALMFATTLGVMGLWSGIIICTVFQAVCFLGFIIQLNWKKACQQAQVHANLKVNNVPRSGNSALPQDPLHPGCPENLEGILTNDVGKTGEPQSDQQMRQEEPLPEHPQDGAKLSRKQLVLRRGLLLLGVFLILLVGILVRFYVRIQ
Assay Explanation: in vitro
Readout: inhibition at 50 μM (%)

1) COc1cc(N2CCC3(CCN(C)CC3)CC2)ccc1Nc1ncc(Cl)c(Nc2ccccc2P(C)(C)=O)n1 [Iruplinalkib] | 112

----------
pIC50: −log10 of the molar value.
Parameter pIC50, tested on P38 alpha (Homo sapiens), listed per item.
Sequence (Q16539 whole entry): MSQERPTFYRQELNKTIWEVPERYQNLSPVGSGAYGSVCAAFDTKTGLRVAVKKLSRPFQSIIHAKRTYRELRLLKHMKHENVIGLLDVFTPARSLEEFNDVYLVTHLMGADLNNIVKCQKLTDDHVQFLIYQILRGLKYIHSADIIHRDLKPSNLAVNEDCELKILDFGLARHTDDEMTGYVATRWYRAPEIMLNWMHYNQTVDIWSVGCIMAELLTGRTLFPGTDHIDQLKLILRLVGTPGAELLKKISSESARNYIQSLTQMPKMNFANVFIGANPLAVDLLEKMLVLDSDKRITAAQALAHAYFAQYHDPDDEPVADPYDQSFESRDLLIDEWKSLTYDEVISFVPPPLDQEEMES
Readout: pIC50

1) COc1cc(N2CCC3(CCN(C)CC3)CC2)ccc1Nc1ncc(Cl)c(Nc2ccccc2P(C)(C)=O)n1 [Iruplinalkib] | < 5.00
2) COc1cc(N2CCC(N3CCN(C)CC3)CC2)ccc1Nc1ncc(Cl)c(Nc2ccccc2P(C)(C)=O)n1 [Brigatinib, reference compound] | < 5.00

----------
Assayed Target: FGFR1 (Homo sapiens)
Sequence (P11362 22-822): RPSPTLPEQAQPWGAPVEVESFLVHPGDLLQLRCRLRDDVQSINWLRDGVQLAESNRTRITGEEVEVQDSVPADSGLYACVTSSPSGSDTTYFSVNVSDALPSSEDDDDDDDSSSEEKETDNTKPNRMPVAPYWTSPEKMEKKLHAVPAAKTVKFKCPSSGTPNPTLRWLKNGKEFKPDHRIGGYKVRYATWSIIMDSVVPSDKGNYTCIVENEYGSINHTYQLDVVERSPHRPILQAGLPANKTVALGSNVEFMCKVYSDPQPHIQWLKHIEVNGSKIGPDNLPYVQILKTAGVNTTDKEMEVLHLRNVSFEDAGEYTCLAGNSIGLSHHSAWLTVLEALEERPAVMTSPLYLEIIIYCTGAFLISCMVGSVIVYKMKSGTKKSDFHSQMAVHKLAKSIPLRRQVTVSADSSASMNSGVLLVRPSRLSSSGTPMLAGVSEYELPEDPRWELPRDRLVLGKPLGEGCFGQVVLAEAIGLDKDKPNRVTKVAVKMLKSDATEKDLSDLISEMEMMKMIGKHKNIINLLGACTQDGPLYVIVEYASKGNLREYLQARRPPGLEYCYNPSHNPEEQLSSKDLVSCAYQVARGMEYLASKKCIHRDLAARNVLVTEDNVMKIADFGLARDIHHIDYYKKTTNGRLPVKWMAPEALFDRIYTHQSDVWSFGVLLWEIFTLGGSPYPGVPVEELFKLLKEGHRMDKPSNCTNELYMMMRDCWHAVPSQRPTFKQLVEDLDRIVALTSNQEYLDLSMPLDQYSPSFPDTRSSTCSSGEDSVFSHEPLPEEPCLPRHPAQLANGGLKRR
Assay Explanation: Z'-LYTE kinase selectivity
pIC50: −log10 of the molar value.
Readout: pIC50

1) COc1cc(N2CCC3(CCN(C)CC3)CC2)ccc1Nc1ncc(Cl)c(Nc2ccccc2P(C)(C)=O)n1 [Iruplinalkib] | 6.60

----------
Tested on: OATP1B3
Assay Explanation: Uptake inhibitor investigation in HEK293 cells expressing transporter
Assay type: in vitro ADME
Condition: human, HEK293 cells expressing OATP1B3, probe ATV (atorvastatin), 1 μM; read-out: Inhibition rate
Readout: inhibition at 5 μM (%)

1. COc1cc(N2CCC3(CCN(C)CC3)CC2)ccc1Nc1ncc(Cl)c(Nc2ccccc2P(C)(C)=O)n1 | 15.3
